Tested on: K4 kissing-loop RNA reporter;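 further: bound reporter read as fluorescence of individual clusters on recovered sequencing chips by microscopy, with normalized cluster intensities fitted with a binding model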
Assay: apparent KD of K4 kissing-loop reporter; higher = weaker reporter binding
Conditions: Eterna round: R107; input ligand: FMN 200 uM
Returns one of rule met or rule not met; rule met when apparent KD of K4 kissing-loop reporter is >= 200 nM.

Input line: Hi team, for GGGUUGAGCGGAAGGAGCGGCUGAACCAGUGAUGUUGGUUAAUCCAAGUGAUGUUGGAAAAGCCAGGUAGGUCGCCGCUUUAUCC [Same State Arg B GF 3] , is the recorded apparent KD of K4 kissing-loop reporter at or above 200 nM?
Output line: rule met

Others:
Input line: Is the recorded value of apparent KD of K4 kissing-loop reporter equal to or greater than 200 nM for this sequence? GUAGAUAGGCUACAUCUCUAGUCUAAACACUAGGAUAUCAGGAAACUGAGAAGGAGUGUCAUUGGAGUGAUGUUCCAAGAAUAAU [KL-SSFMN-A17]
Output line: rule not met

Input line: Is the recorded value of apparent KD of K4 kissing-loop reporter equal to or greater than 200 nM for this sequence? UGUCAUUGGUCGGAUACCAGUUGAUGACGAAUACGUCAACUGGAGUGAUGUUCCUAAAACAACCCUUGGCAGCCGACCGAUGACU [MAT - Same State Theophlline B - Mod of Eli - D1]
Output line: rule met

Input line: Given the entry GCUCAGGAGUGAUGUUCCAAGUGGUGUUAACGAGGACCGGUACGGCCGCCACUCGAUACGGCCGGACCGUAGGAUAAACUAGAGC [Same State - Tryptophan A (Freestyle 11)] , answer whether its apparent KD of K4 kissing-loop reporter meets or surpasses 200 nM.
Output line: rule met

Input line: Does the reported apparent KD of K4 kissing-loop reporter for UGCAGUGAUGUUGCUAUUUUUCUUGAUUAACGAGGACCGGUACGGCCGCCACUCGAUUUCUCUCUAAUCCAGUAUGUUGUUUGAU [whbob_EX_Tryp_A_t4] fall at or above the 200 nM mark?
Output line: rule not met

Input line: Test whether the sequence UACAGGGAUAGUGAUGUUAUCCCAUGUGAUACCAGUGCCAUCCAACACCCUUGGCAGCAUACGGGCAGUGAUGUUGUUCUUGGUA [#16 K4 Theophylline A Exclusion] records apparent KD of K4 kissing-loop reporter of 200 nM or higher.
Output line: rule not met

----------
Tested on: MS2 coat protein
Experiment: apparent KD of MS2 coat protein; higher = weaker reporter binding
Conditions: Eterna round: R107; input ligand: none
The sequences listed here are annotated with their apparent KD of MS2 coat protein.
Kindly answer with a numeric value in nM, unit omitted.

Input line: // returns reported apparent KD of MS2 coat protein for input CCUGAUGAGUCGGCCGCCACUCCAGUUGUAUUACAGGUUUUCGUAGACAUGAGGAUCACCCAUGUGAGGACCGGGACACACACAG [theeternabot_exclusion_MS2_Trp_B_21]
Output line: 11.3

New cases:
Input line: Could you tell me which apparent KD of MS2 coat protein is on file for ACAUGAGGAUCACCCAUGUUUGUUGUUCCUCGAGGACCGGUACGGCCGCCACUCGAACGAGUGGCGCGCGAGUGCGCACUCGCGC [aOa] ?
Output line: 11.9

Input line: Recorded apparent KD of MS2 coat protein for AAAAGAGGUGGAAGGAGCGGGAGACAUGAGGAUCACCCAUGUGAUGUGACGAAAGGGUCAGCCCAGGUAGGUCGCCAUGUCGAAA [yuyymullin] , please?
Output line: 62.9
